Below, each of the compounds is paired with its reported GI50 value.
test system: MCF7; experiment: NCI tumour cell line growth inhibition, 48 h
Calls of active or inactive are those of the source. Rule as the data show it: active = GI50 up to about 1.1 µM and inactive = higher.
endpoint.label: GI50

In [3]: df
Out[3]:
                                    compound               result
 0  S=C1N=C2C(=N1)n1c3c(c4ccccc41)CCCC23 (configuration not stated)     24 µM (inactive)
 1  CCN(CC)CCC/N=c1\c2cc(OC)ccc2[nH]c2c([N+](=O)[O-])ccc(NCCCN(CC)CC)c12   1.54 µM (inactive)
 2          O=C(/C=C\c1ccccc1)N1CCc2ccccc2C1   49.7 µM (inactive)
 3  Cc1nc(O)nc2nc3cc(Cl)cc(Cl)c3c(NC(C)(CO)CO)c12   1.55 µM (inactive)
 4  O=C1CNNC(CSc2nc3ccc(I)cc3c(=O)n2Cc2ccccc2)=N1   28.4 µM (inactive)
 5  O=c1n(-c2ccccc2)c(=O)n2n1C1Cc3ccccc3C12 (configuration not stated)  > 100 µM (inactive)
 6  COC(=O)C1Cc2ccc3c(c2C1=O)CCCC3 (configuration not stated)   73.6 µM (inactive)
 7  FC(F)(F)c1cccc(-c2nc3nc(Cl)c(Cl)nc3[nH]2)c1   0.0241 µM (active)
 8  CC(=C(C(=O)O)C(=O)O)c1cc(-c2cccs2)cc(-c2ccc(Cl)cc2)c1O   5.47 µM (inactive)
 9  CC(=O)[C@H]1CCC2[C@@H]3CC=C4C(O)C(OS(=O)(=O)O)CC[C@]4(C)C3CC[C@@]21C (some centres not stated)  > 100 µM (inactive)
10  Cc1ccc(/C(C#N)=C/c2cccc([N+](=O)[O-])c2)cc1  > 100 µM (inactive)
11  CC(C)(C)c1ccc(OC(=O)Nc2ccc(O)c(C(=O)O)c2)cc1  > 100 µM (inactive)
12  CC1C(c2ccc3c(c2)OCO3)c2cc3c(cc2OC1N1CCCC1)OCO3 (configuration not stated)   33.1 µM (inactive)
13  Cc1nc2ccc(S(=O)(=O)Nc3ccccc3Cl)cc2c(=O)n1NC(=O)CNc1ccccc1Cl  > 100 µM (inactive)
14            Cc1cc2c(cc1C)C(=O)c1ncccc1C2=O   20.2 µM (inactive)
15  C=CC(=O)NC(O)(C(=O)OCC)C(F)(F)F (configuration not stated)  > 100 µM (inactive)
16   O=c1cc(/N=N\c2ccc(Br)cc2)[nH]c(=S)[nH]1   15.8 µM (inactive)
17                             CCCS(=O)(=O)O  > 100 µM (inactive)
18  COc1cc2c3cc1Oc1c(OC)c(OC)cc4c1C(Cc1ccc(O)c(c1)Oc1ccc(cc1)CC3N(C)CC2)CN(C)C4 (configuration not stated)   16.4 µM (inactive)
19  Cc1cc(S(=O)(=O)/N=C2\NCCN2Cc2ccccc2)c(S)cc1Cl  > 100 µM (inactive)
20          COc1ccc(/C=C(/C)[N+](=O)[O-])cc1   1.22 µM (inactive)
21  COC(=O)C(=O)c1cc2ccccc2n1S(=O)(=O)c1ccccc1  > 100 µM (inactive)

====

tested on: U-251; assay: NCI tumour cell line growth inhibition, 48 h
Active and inactive are the calls of the source. Cut-off read from the data, not from the text of the source: active = GI50 up to about 1.1 µM and inactive = higher.
Outcomes: active, inactive

>>> df
                                   compound  experimental_system  class_assignment
0  O=C(NC12CC3CC(CC(C3)C1)C2)C(=O)c1c[nH]c2ccc(Cl)cc12                U-251          inactive
1  O=c1cc(-c2ccccc2)c2ccc(O)c(CN(CCCl)CCCl)c2o1                U-251          inactive
2  COc1cc([C@@H]2c3cc4c(cc3[C@@H](Nc3ccc(Cl)cc3C(=O)c3ccccc3)[C@H]3COC(=O)[C@H]23)OCO4)cc(OC)c1OC                U-251            active
3   O=c1cc(/N=N\c2ccc(Br)cc2)[nH]c(=S)[nH]1                U-251          inactive
4  CCN(CC)CC(C(=O)Nc1c(C)cccc1C)/C(C)=N/NC(N)=S (stereo not given)                U-251          inactive
5               COc1cc2ccc(CC(N)=O)cc2cc1OC                U-251          inactive
6  Cc1cn(C2CC(N/C(=N/C#N)NCC3OC(n4cnc5c(N)ncnc54)CC3O)C(CO)O2)c(=O)[nH]c1=O (stereo not given)                U-251          inactive
7              c1ccc2c(c1)Oc1cccc3cccc-2c13                U-251          inactive
8       CC1=NN=C(NCCN(C)C)C/C1=C/c1ccccc1Cl                U-251          inactive
9  CN1N=C2c3ccccc3OC(c3ccccc3)[C@H]2C1c1ccccc1 (stereo not given in full)                U-251          inactive

====

Below, each of the compounds is paired with its reported GI50 value.
system: HL-60; assay: NCI tumour cell line growth inhibition, 48 h
Active and inactive are the calls of the source. No stated cut-off is given here; in the data, active = GI50 up to about 1.1 µM and inactive = higher.
endpoint.label: GI50

>>> print(df.to_string())
                                   compound  endpoint_label               result
0     CCOC(=O)c1ccc(NC(=O)O/N=C(/Cl)CCl)cc1            GI50   24.2 µM (inactive)
1        Cc1nc2c(n1CC(C)C)C(=O)c1ccccc1C2=O            GI50     23 µM (inactive)
2                            Nc1n[nH]c(N)n1            GI50   1420 µM (inactive)
3                              C/C=C(/I)CBr            GI50   4.49 µM (inactive)
4  O=C(NC12CC3CC(CC(C3)C1)C2)C(=O)c1c[nH]c2ccc(Cl)cc12            GI50   17.3 µM (inactive)
5  O=C1OC2C=CCC1C2 (configuration not stated)            GI50  > 100 µM (inactive)
6  CCOC(=O)C1=C(C)N(c2ccc(Cl)cc2)C2(O)C=CC(=O)C3C(=O)N(c4ccccc4)C(=O)C132 (configuration not stated)            GI50   2.76 µM (inactive)

====

system: SN12C; assay: NCI tumour cell line growth inhibition, 48 h
The source made the active and inactive calls. Rule as the data show it: active = GI50 up to about 1.1 µM and inactive = higher.
endpoint.label: GI50

In [3]: df
Out[3]:
                                    compound  endpoint_label               result
 0                    CCOC(CCNCC(OCC)OCC)OCC            GI50   > 10 µM (inactive)
 1  COc1cccc(Nc2n[nH]c(NS(=O)(=O)c3cc(C)c(Cl)cc3S)n2)c1            GI50  > 100 µM (inactive)
 2  COC1(OC)C2(Cl)CCC1(Cl)C(OC(C)=O)C2 (configuration not stated)            GI50  > 100 µM (inactive)
 3  COc1ccc(C(=O)/C=C/c2ccc(OCCCOc3ccc(/C=C/C(=O)c4ccc(OC)c(OC)c4)cc3)cc2)cc1OC            GI50  > 100 µM (inactive)
 4  Cc1cc(S(=O)(=O)/N=C2\NCCN2Cc2ccccc2)c(S)cc1Cl            GI50  > 100 µM (inactive)
 5  CN(C)c1ccc(/C=C(\C#N)c2nc(-c3cc4ccccc4oc3=O)cs2)cc1            GI50   > 50 µM (inactive)
 6                                 NC1CCCCC1            GI50  > 562 µM (inactive)
 7  CCN(CCCN(CC)C(=O)Nc1ccccc1)C(=O)Nc1ccccc1            GI50  > 100 µM (inactive)
 8  COc1ccc(/C=C/C(=O)c2c(-c3ccccc3)nn(C)c(=O)c2N2CC2C)cc1 (configuration not stated)            GI50     37 µM (inactive)
 9  O=C(O)CN(c1ccccc1)S(=O)(=O)c1ccc([N+](=O)[O-])cc1            GI50  > 100 µM (inactive)
10           COC(=O)c1sc2ncc3c(c2c1N)CCCCCC3            GI50  > 100 µM (inactive)
11      COc1cc(OC)c(OC)cc1/C=C/c1nc2ccccc2s1            GI50  > 100 µM (inactive)
12  COC(=O)C1CC2C=CC1N(C(=O)OCc1ccccc1)C2 (configuration not stated)            GI50  > 100 µM (inactive)
13   Clc1cc(Cl)cc(Nc2nc3ccccc3nc2-c2cccs2)c1            GI50   54.3 µM (inactive)
14           COC(=O)c1ccc(CCc2cc(O)ccc2O)cc1            GI50   7.98 µM (inactive)
15  COC(=O)C(Cc1ccccc1)NP(=O)(O)OCC1OC(n2ccc(N)nc2=O)C(O)C1O (configuration not stated)            GI50  > 100 µM (inactive)
16     CCOC(=O)c1ccc(NC(=O)O/N=C(/Cl)CCl)cc1            GI50   84.9 µM (inactive)
17  N#C[C@H](C(=O)c1ccccc1F)c1nc2ccccc2[nH]1            GI50  > 100 µM (inactive)
18  COc1ccc(C(=O)/C=C/c2ccc(OCCCCCCCCCCOc3ccc(/C=C/C(=O)c4ccc(OC)c(OC)c4)cc3)cc2)c(OC)c1            GI50  > 100 µM (inactive)
19  CCOC(=O)C1=c2[nH]c3cccc4cccc(c43)n2C=C(C(C)=O)C1CC(C)=O (configuration not stated)            GI50  > 100 µM (inactive)
20  Cc1ccc(S(=O)(=O)[N-]C2C(=O)c3ccccc3C(=O)C2[n+]2cccc(C(N)=O)c2)cc1 (configuration not stated)            GI50   30.3 µM (inactive)
21       CN(/N=C/c1ccc(C(=O)O)cc1)C1=NCCCCN1            GI50  > 100 µM (inactive)
